Experiment: Phase 1b study in female adults with cystitis, plasma PK
Assay type: in vivo, human
Conditions: female, human, plasma, oral, 300 mg, plasma, Day 5, PO300; read-out: AUC(0-24 hrs), Mean
Procedure: According to the study design, a randomized (1:1:1), open-label, parallel designed Phase 1b study comparing 3 dosing regimens of Compound 1 (9-[(2,2-dimethyl-propyl amino)-methyl-minocycline) in the treatment of female adults with cystitis was conducted. […] Blood samples were collected and analyzed for Compound 1 concentration at the following times. […]
quantityName: AUC(0-t) (ng·h/mL)
Your answer is read as ng·h/mL, so omit the unit and give the number.

### Prompt // AUC(0-t) lookup, key: `CN(C)c1cc(CNCC(C)(C)C)c(O)c2c1C[C@H]1C[C@H]3[C@H](N(C)C)C(O)=C(C(N)=O)C(=O)[C@@]3(O)C(O)=C1C2=O`
### Response 13500

----------
tested on: E. faecium VS; assay: In vitro MIC, 2010 surveillance isolates; format: cell-based; details: Asia/Pac; N=106
For each of the molecules below, state its MIC90.
Quick note: give the figure in µg/mL, leave out the unit.

### Prompt Fill in the blank: the reported MIC90 of CN[C@H](CC(C)C)C(=O)N[C@H]1C(=O)N[C@@H](CC(N)=O)C(=O)N[C@H]2C(=O)N[C@H]3C(=O)N[C@H](C(=O)N[C@H](C(=O)O)c4cc(O)cc(O)c4-c4cc3ccc4O)[C@H](O)c3ccc(c(Cl)c3)Oc3cc2cc(c3O[C@@H]2O[C@H](CO)[C@@H](O)[C@H](O)[C@H]2O[C@H]2C[C@](C)(N)[C@H](O)[C@H](C)O2)Oc2ccc(cc2Cl)[C@H]1O [Vancomycin] is ____.
### Response 1

### Prompt Which value of MIC90 has been reported for CN(C)c1cc(CNCC(C)(C)C)c(O)c2c1C[C@H]1C[C@H]3[C@H](N(C)C)C(O)=C(C(N)=O)C(=O)[C@@]3(O)C(O)=C1C2=O [Compound 1] in the records?
### Response 0.25

### Prompt What MIC90 value was documented for this molecule, CN(C)c1cc(NC(=O)CNC(C)(C)C)c(O)c2c1C[C@H]1C[C@H]3[C@H](N(C)C)C(O)=C(C(N)=O)C(=O)[C@@]3(O)C(O)=C1C2=O [Tigecycline] ?
### Response 0.12

----------
Please provide measured MIC90 for the entries that follow.
tested on: MSSA; test: In vitro MIC, 2010 surveillance isolates; type: cell-based; settings: L. Amer; N=590
Give your result in µg/mL as a bare value.

### Prompt I am curious: what MIC90 value has been reported for CN(C)c1cc(NC(=O)CNC(C)(C)C)c(O)c2c1C[C@H]1C[C@H]3[C@H](N(C)C)C(O)=C(C(N)=O)C(=O)[C@@]3(O)C(O)=C1C2=O [Tigecycline] ?
### Response 0.25

### Prompt Recorded MIC90 of CN[C@H](CC(C)C)C(=O)N[C@H]1C(=O)N[C@@H](CC(N)=O)C(=O)N[C@H]2C(=O)N[C@H]3C(=O)N[C@H](C(=O)N[C@H](C(=O)O)c4cc(O)cc(O)c4-c4cc3ccc4O)[C@H](O)c3ccc(c(Cl)c3)Oc3cc2cc(c3O[C@@H]2O[C@H](CO)[C@@H](O)[C@H](O)[C@H]2O[C@H]2C[C@](C)(N)[C@H](O)[C@H](C)O2)Oc2ccc(cc2Cl)[C@H]1O [Vancomycin] , please.
### Response 1

### Prompt What measured MIC90 goes with CO/N=C(\C(=O)N[C@@H]1C(=O)N2C(C(=O)O)=C(CSc3nc(=O)c(=O)[nH]n3C)CS[C@H]12)c1csc(N)n1 [Ceftriaxone] ?
### Response 4

### Prompt What does the record list as MIC90 for CN(C)c1cc(CNCC(C)(C)C)c(O)c2c1C[C@H]1C[C@H]3[C@H](N(C)C)C(O)=C(C(N)=O)C(=O)[C@@]3(O)C(O)=C1C2=O [Compound 1] ?
### Response 0.25

### Prompt Bench note: what MIC90 did C[C@H]1c2cccc(O)c2C(=O)C2=C(O)[C@]3(O)C(=O)C(C(N)=O)=C(O)[C@@H](N(C)C)[C@@H]3[C@@H](O)[C@@H]21 [Doxycycline] show?
### Response 0.5
